Entry source: PubChem BioAssay (NCI)

Test system: U251 CNS
experiment: NCI tumour cell line growth inhibition, 48 h
I'd be grateful if you could share measured TGI for these entries.

Worked set:
compound="O=C1c2ccccc2-n2nnnc2C2CSCN12 (stereo not given)" reported="> 100 µM"
compound=Cn1cc(-c2cc3c(N4CCN(c5ncc([C@@](C)(N)c6ccc(F)cc6)cn5)CC4)ncnn3c2)cn1 reported="> 100 µM"
compound="COc1cc(C2C(Cl)C(=O)N2n2cnc3ccccc3c2=O)ccc1O (stereo not given)" reported="> 100 µM"
compound=CCCCCCc1cc2cc(-c3cn4ccsc4n3)c(=O)oc2cc1O reported="> 100 µM"
compound="O=C1OCC2=C1C(c1cccc(Br)c1)c1cc3c(cc1N2CCO)OCCO3 (stereo not given)" reported="6.07 µM"

# per-item lookup of TGI; items listed below
1. O=C(NC1CCCCC1)NS(=O)(=O)c1ccc(N2N=C3c4ccccc4CC3C2c2ccc(Cl)cc2)cc1 (stereo not given)
2. COc1cc2c(cc1OC)-c1cc(OC)c(OC)cc1C(CN(C)C)C2 (stereo not given)

21.7 µM
> 10 µM

Give TGI for each of the items listed below.
1. COc1ccc(S(=O)(=O)n2c3c(c4ccccc42)[C@@H]2[C@@H](CCCN2C(=O)CS(=O)c2ccc(C)cc2)[C@H](Cl)C3)cc1 (stereo not given in full)
2. Cc1ccc(S(=O)(=O)N2CC2CCCCC=O)cc1 (stereo not given)
3. CC(N)/C(N)=N/O (stereo not given)

1: > 100 µM; 2: > 100 µM; 3: > 100 µM

###

System: A549 NSCLC
experiment: NCI tumour cell line growth inhibition, 48 h
Exercise: state measured TGI for each of the compounds provided.

compound="Cc1ccc(S(=O)(=O)N2CC2CCCCC=O)cc1 (stereo unspecified)" reported="> 100 µM"
compound=CC(=O)N[C@@H](Cc1ccc(OP(=O)(O)O)cc1)C(=O)N[C@H]1CCC(=O)N2CCC[C@@H](C(=O)Nc3cccc4ccccc34)N2C1=O reported="> 25 µM"
compound=O=[N+]([O-])c1cc([N+](=O)[O-])c(C(F)(F)F)cc1NN=C(c1ccc(O)cc1)c1ccc(O)cc1 reported="14.5 µM"
compound=CN(C)C(=S)/N=c1\ssc(=S)n1C1CCCCC1 reported="> 100 µM"
compound=O=C(O)Cc1ccc([N+](=O)[O-])cc1[N+](=O)[O-] reported="> 100 µM"

Go through the list and state TGI for each entry.
1. C(=C/CCCN1O[C@@H](CCCCCCCCc2cccnc2)[C@H]2CCC[C@H]21)/CCCCCCCCCc1cccnc1
2. O=c1c(F)cn(Cc2c(Cl)cccc2Cl)c(=O)n1Cc1c(Cl)cccc1Cl
3. CCCOc1nc(N)c2cnn(C3CCCCO3)c2n1 (stereo unspecified)
4. Cc1ccc(S[C@@H](C)[C@@](O)(CF)CN(Cc2ccccc2)C(=O)C(F)(F)F)cc1
5. COc1ccc2c(c1)[n+]([O-])c(C(N)=O)c(N)[n+]2[O-]

1. 47.2 µM
2. > 31.6 µM
3. > 100 µM
4. 32.1 µM
5. > 100 µM

###

System: IGROV1 ovarian
experiment: NCI tumour cell line growth inhibition, 48 h; in the data active = GI50 below about 0.43 µM; inactive = the rest
API: response.call in Y (active), N (inactive)

Here's what some known entries look like.
compound="OC(c1cc(C(F)(F)F)nc2c(C(F)(F)F)cccc12)C1CCCCN1 (stereo not given)" qualitativelabel=N
compound=c1ccc(Nc2ncc(-c3ccccc3)o2)cc1 qualitativelabel=N
compound=CCOC(=O)n1cc(C2=C(c3ccc(OC)c(OC)c3)COC2=O)c2ccccc21 qualitativelabel=Y
compound=Cn1cc(-c2cc3c(N4CCN(c5ncc([C@@](C)(N)c6ccc(F)cc6)cn5)CC4)ncnn3c2)cn1 qualitativelabel=N

From here, focus on the item given below.
What was the test verdict on `Cc1[cH-]c(=O)n(-c2ccccc2)n1.[Au+].[Au].c1ccc([PH+](c2ccccc2)c2ccccc2)cc1.c1ccc([PH+](c2ccccc2)c2ccccc2)cc1` ?
N

###

Tested on: NCI-H23 lung
experiment: NCI tumour cell line growth inhibition, 48 h; in the data active means GI50 below about 0.43 µM; inactive means the rest
Form entry, call: pick from label 1 = active, label 0 = inactive

Below, 6 compounds whose answers are already recorded.
compound=CC[C@@H](c1ccc(O)c(O)c1)[C@@H](CC)c1ccc(O)c(O)c1 qualitativelabel="label 0"
compound="O=C1OCC2=C1C(c1cccc(Br)c1)c1cc3c(cc1N2CCO)OCCO3 (centres undefined)" qualitativelabel="label 1"
compound=CC(=O)N[C@@H](Cc1ccc(OP(=O)(O)O)cc1)C(=O)N[C@H]1CCC(=O)N2CCC[C@@H](C(=O)Nc3cccc4ccccc34)N2C1=O qualitativelabel="label 0"
compound=COC(=O)c1cc2oc(/C=C3/SC(=S)N(NC(C)=O)C3=O)cc2n1C qualitativelabel="label 0"
compound="CC(C)(C)[Si](C)(C)OC1[C@@H](O[Si](C)(C)C(C)(C)C)[C@@H](CNC(=O)NC(=O)C(F)(F)F)O[C@H]1n1cnc2c(NC(=O)Nc3ccccc3)ncnc21 (some centres undefined)" qualitativelabel="label 0"
compound=Cc1[cH-]c(=O)n(-c2ccccc2)n1.[Au+].[Au].c1ccc([PH+](c2ccccc2)c2ccccc2)cc1.c1ccc([PH+](c2ccccc2)c2ccccc2)cc1 qualitativelabel="label 0"

What was the test verdict on `CC(=C(c1ccc(OCCN2CCCCC2)cc1)c1ccc(OCCN2CCCCC2)cc1)c1ccc(Cl)cc1` ?
label 0

Which outcome was entered for the compound `c1ccc(-c2n(Cc3ccc4ccccc4n3)cc[n+]2Cc2ccc3ccccc3c2)cc1` in this test?
label 0

I would be grateful if you could indicate the recorded call for `COC(=O)[C@]12CC[C@@H](C)[C@H](C)[C@@H]1C1=CC[C@@H]3[C@@]4(C)C[C@@H](O)[C@H](O)[C@@](C)(CO)[C@@H]4[C@H](O)C[C@@]3(C)[C@]1(C)CC2` .
label 0

###

System: K-562 leukemia
experiment: NCI tumour cell line growth inhibition, 48 h
experimentalEndpoint: TGI (µM)
Answers are plain numbers, in µM.

Before answering, review these 2 worked examples.
compound="O=C(Nc1nc(=S)[nH][nH]1)C(=O)C(C(=O)c1ccc2ccccc2c1)C1OC(=O)c2ccccc21 (centres undefined)" experimentaltarget="K-562 leukemia" reported=82.9
compound=Cc1cc(OC(=O)Nc2cccc3ccccc23)c(C(C)C)cc1C(=S)Nc1ccccc1 experimentaltarget="K-562 leukemia" reported=43.2

Quick request: TGI for each listed item, please.
1. O=[N+]([O-])c1cc([N+](=O)[O-])c(C(F)(F)F)cc1NN=C(c1ccc(O)cc1)c1ccc(O)cc1
2. COC(=O)[C@]12CC[C@@H](C)[C@H](C)[C@@H]1C1=CC[C@@H]3[C@@]4(C)C[C@@H](O)[C@H](O)[C@@](C)(CO)[C@@H]4[C@H](O)C[C@@]3(C)[C@]1(C)CC2

1: 15.7; 2: 45.7

###

System: SF-295 CNS
experiment: NCI tumour cell line growth inhibition, 48 h
experimentalEndpoint: GI50

The cases that follow already have their GI50 on record.
molecule=CC(=C(c1ccc(OCCN2CCCCC2)cc1)c1ccc(OCCN2CCCCC2)cc1)c1ccc(Cl)cc1 experimentaltarget="SF-295 CNS" reported="0.449 µM"
molecule=COC(=O)c1cc2oc(/C=C3/SC(=S)N(NC(C)=O)C3=O)cc2n1C experimentaltarget="SF-295 CNS" reported="18.2 µM"
molecule="CCCCCCCCCCSC(=N)N (tested in a mixture with another compound)" experimentaltarget="SF-295 CNS" reported="3.79 µM"
molecule=Cc1cc2c(cc1C)[n+](=O)c(C(=O)c1ccccc1)c(C(F)F)n2[O-] experimentaltarget="SF-295 CNS" reported="7.27 µM"

# ---- query molecule ----
Check the records and state GI50 for `C=C1C(=O)O[C@H]2[C@H]1CC/C(CNC(=O)c1cc3ccccc3[nH]1)=C\CC[C@@]1(C)O[C@@H]21`
6.45 µM

###

Test system: SK-MEL-2 melanoma
experiment: NCI tumour cell line growth inhibition, 48 h
experimentalEndpoint: log10 TGI (log10 of the value in µM)
All values: log10 TGI [µM].

compound=CC(C)[C@@H]1NC(=O)[C@]2(C)CSC(=N2)c2ccnc(c2)CNC(=O)C[C@@H](/C=C/CCS)OC1=O reported=-0.29
compound=Cc1ccc(S[C@@H](C)[C@@](O)(CF)CN(Cc2ccccc2)C(=O)C(F)(F)F)cc1 reported=1.56
compound=COc1c(CC(C)=O)ccc2c1C(=O)c1ccc(C=O)c(OC(C)=O)c1C2=O reported=1.48

Give me log10 TGI for each of these compounds, listed below.
1. CN1CCN(C(=O)COc2ccc(C34CC5CC(CC(C5)C3)C4)cc2)CC1
2. Br[Se]c1ccccn1
3. COc1ccc(Cn2c(Br)c3c(c2Br)-c2nc(N)sc2CC3)cc1
4. CC1(C)[C@@H](NOCCCN)CC[C@]2(C)[C@H]3C(=O)C=C4[C@@H]5C[C@](C)(C(=O)O)CC[C@]5(C)CC[C@@]4(C)[C@]3(C)CC[C@@H]12
5. Cc1ccc(C(=O)OC(C(=O)O)C(OC(=O)c2ccc(C)cc2)C(=O)O)cc1 (stereo unspecified) (tested in a mixture with another compound)
6. N#CSC#CCCC#CSC#N

[1.48, 1.48, 1.30, 1.42, 1.37, 1.63]
